# assay-name: Metabolic stability in human liver microsomes
# Type: in vitro ADME
# condition-context: human liver microsomes, 5 min
Sorting guide: entries reporting % disappearance at 5 minutes relative to time zero beneath 60% go in the YES pile, the rest go in the NO pile.

Please determine if F[C@@H]1CCN(c2ccc(-n3cc4sc(-c5cccnc5)cc4n3)cn2)C1 [LMD-032] is below 60% in terms of % disappearance at 5 minutes relative to time zero.
YES

Please determine if F[C@@H]1CCN(c2ccc(-n3ncc4sc(-c5cncs5)cc43)cn2)C1 [LMD-046] is below 60% in terms of % disappearance at 5 minutes relative to time zero.
NO

Please determine if FC1CCN(c2cnc(-n3cc4sc(-c5cccnc5)cc4n3)cn2)CC1 [LMD-051] is below 60% in terms of % disappearance at 5 minutes relative to time zero.
YES

Please determine if F[C@@H]1CCN(c2cnc(-c3ccc4scc(-c5cccnc5)c4n3)cn2)C1 [LMD-045] is below 60% in terms of % disappearance at 5 minutes relative to time zero.
YES

Please determine if O=C1NCc2nc(-c3cnc(N4CC[C@@H](F)C4)cn3)ccc21 [LMD-022] is below 60% in terms of % disappearance at 5 minutes relative to time zero.
YES

Please determine if F[C@@H]1CCN(c2cnc(-c3csc4ccc(-c5cccnc5)nc34)cn2)C1 [LMD-044] is below 60% in terms of % disappearance at 5 minutes relative to time zero.
YES

----------
Exercise: for every item that follows, state its recorded pKi.
# target-of-assay: α-synuclein (α-syn) aggregates in PD brain homogenates (Homo sapiens)
# Construct: Anterior cingulate cortex tissue from a Parkinson’s disease (PD) case; tissue Banner Sun Health Research Institute (Dr. Thomas Beach); host or cells: post-mortem human PD anterior cingulate cortex homogenate
# assay-name: In vitro competition (Ki) assay vs [3H]asyn-44 in PD brain homogenates
# Format: binding
# condition-context: 1 nM [3H]asyn-44
# Description: Anterior cingulate cortex tissue from a Parkinson’s disease (PD) case was generously provided by Dr. Thomas Beach at the Banner Sun Health Research Institute in Arizona, USA. […] The equilibrium inhibition constants (Ki) for the unlabelled compounds were measured against [^3H]asyn-44 using our previously reported procedure. […] After washing, retained radioactivity was measured using CytoScint-ES scintillation fluid following thorough vortexing. […]
Just the number, please; pKi means minus log10 of the concentration in mol/L.

Assign pKi to the following record: FC1CCN(c2ccc(-c3ccc4scc(-c5cccnc5)c4n3)cn2)C1 (centres unmarked) [LMD-041]
7.24

Assign pKi to the following record: FC1CCN(c2ccc(-c3cc4nc(-c5cccnc5)ccc4s3)cn2)C1 (centres unmarked) [LMD-024]
7.27

Assign pKi to the following record: FC1CCN(c2cnc(-n3cc4sc(-c5cccnc5)cc4n3)cn2)CC1 [LMD-051]
8.04

Assign pKi to the following record: F[C@@H]1CCN(c2cc(-n3cc4sc(-c5cccnc5)cc4n3)ncn2)C1 [LMD-052]
8.22

Assign pKi to the following record: Cn1ccc(-c2cc3nn(-c4cnc(N5CCC(F)C5)cn4)cc3s2)n1 (centres unmarked) [LMD-054]
7.62

----------
# target-of-assay: α-synuclein (α-syn) aggregates in PD brain homogenates (Homo sapiens, UniProt P37840)
# Construct: Anterior cingulate cortex tissue from a Parkinson’s disease (PD) case; tissue Banner Sun Health Research Institute (Dr. Thomas Beach); host or cells: post-mortem human PD anterior cingulate cortex homogenate
# assay-name: Two point screening assay (30 nM and 300 nM) vs [3H]asyn-44 in human PD brain homogenates
# Format: binding
# condition-context: 30 nM competitor
Exercise: for every item that follows, state its recorded remaining activity at 0.03 µM.
Number in %, nothing else.

Assign remaining activity at 0.03 µM to the following record: F[C@@H]1CCN(c2cc(-n3cc4sc(-c5cccnc5)cc4n3)ncn2)C1 [LMD-052]
27

Assign remaining activity at 0.03 µM to the following record: F[C@@H]1CCN(c2cnc(-c3ccc4scc(-c5cccnc5)c4n3)cn2)C1 [LMD-045]
36

Assign remaining activity at 0.03 µM to the following record: F[C@@H]1CCN(c2ccc(-n3ncc4sc(-c5cncs5)cc43)cn2)C1 [LMD-046]
43

Assign remaining activity at 0.03 µM to the following record: FC1CCN(c2cnc(-n3cc4sc(-c5cccnc5)cc4n3)cn2)CC1 [LMD-051]
38

Assign remaining activity at 0.03 µM to the following record: O=C1NCc2nc(-c3cnc(N4CC[C@@H](F)C4)cn3)ccc21 [LMD-022]
40

Assign remaining activity at 0.03 µM to the following record: F[C@@H]1CCN(c2cnc(-c3csc4ccc(-c5cccnc5)nc34)cn2)C1 [LMD-044]
38

Assign remaining activity at 0.03 µM to the following record: F[C@@H]1CCN(c2ccc(-n3cc4sc(-c5cccnc5)cc4n3)cn2)C1 [LMD-032]
38

Assign remaining activity at 0.03 µM to the following record: F[C@@H]1CCN(c2ccc(-c3ccc4sc(-c5cncs5)cc4n3)cn2)C1 [LMD-006]
53
